Reference for the values: a melting point compilation (Tetko et al.; mined from patent text by program, amines drawn as free bases though some values may be those of a salt)

Reported melting point is given for each of the following compounds.

• C=CCOc1cc([N+](=O)[O-])ccc1Cl = 58 to 59.5 °C

## Input Which melting point value is on record for Cc1cccc(C(=O)C(Br)c2ccnc(F)c2)c1 (stereo not given) ?
## Output 66 to 67 °C

## Input Which melting point value is on record for CC1C(=O)NC(C)(C)N1C(=O)CNC(=O)CN1CC(O)CC1=O (stereo not given) ?
## Output 218 to 220 °C

----------
Reported melting point is given for each of the following molecules.

- CC[C@H](CO)NC(=O)c1ccc(C(=O)N2CCN(c3ncccc3NC(C)C)CC2)nc1: 85 to 88 °C
- COC1(Cl)C=C(F)C=C(C=O)C1 (configuration not stated): 59 to 61 °C
- CC(C)c1nn2ccccc2c1C(=O)C1CCCC1: 106 to 110 °C
- OC1(c2cncnc2)CN2CCC1CC2 (configuration not stated): 126 to 127 °C

## Input Which melting point value is on record for Cc1c(Cl)sn(-c2ccc(Cl)cc2)c1=O ?
## Output 104 to 106 °C

## Input Which melting point value is on record for O=C(c1ccnc(Cl)c1)N1CC(c2ccc(F)cc2)C2(CCN(C/C=C/c3ccc(Cl)cc3)CC2)C1 (configuration not stated) ?
## Output 79 to 81 °C

## Input Which melting point value is on record for Oc1ccc2cc(COCC3CC3)ccc2c1 ?
## Output 129 to 132 °C

## Input Which melting point value is on record for O=S1c2ccc(F)cc2CCc2ccc(CO)cc21 (configuration not stated) ?
## Output 181 to 183 °C

## Input Which melting point value is on record for C[C@]12CC[C@H]3[C@@H](CCC4=CC(=O)CC[C@@H]43)[C@@H]1CCC21CC(O)CO1 (some centres not stated) ?
## Output 149 to 154 °C

## Input Which melting point value is on record for O=C(Nc1nc2ccccc2o1)C(Cc1ccc(F)cc1)c1ccc(F)cc1F (configuration not stated) ?
## Output 178 °C

## Input Which melting point value is on record for CCOC(=O)N1CCN(c2ccc(C3=NNC(=O)CC3C)cc2Cl)CC1 (configuration not stated) ?
## Output 154 to 156 °C

## Input Which melting point value is on record for COc1ccc(CN(C(=O)C2CCCc3c(O)cccc32)c2ccc(C(C)C)cc2)c(OC)n1 (configuration not stated) ?
## Output 190 °C

## Input Which melting point value is on record for CCC1Cc2cc(OC)ccc2C2CCC3(C)C(=O)CC(C)C3C12 (configuration not stated) ?
## Output 120 to 122 °C
